# Binding Signal per record follows
# SYSTEM UNDER TEST: T1, human TREM2 (human, UniProt Q9NZC2 19-174, limits assumed)
# T1 construct: also called triggering receptor expressed on myeloid cells 2
# T1 sequence: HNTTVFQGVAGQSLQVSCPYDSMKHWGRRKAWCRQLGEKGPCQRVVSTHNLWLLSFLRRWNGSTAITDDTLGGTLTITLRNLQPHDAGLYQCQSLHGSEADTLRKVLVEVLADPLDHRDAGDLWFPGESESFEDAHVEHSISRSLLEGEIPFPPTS
# ASSAY INFO: 2nd screen, 100 nM

Some solved entries appear below for comparison.
BINDER	OBSERVATION TYPE	RESULT
V46 (antibody, V domains shown, also called 6E7 variant V46) VH: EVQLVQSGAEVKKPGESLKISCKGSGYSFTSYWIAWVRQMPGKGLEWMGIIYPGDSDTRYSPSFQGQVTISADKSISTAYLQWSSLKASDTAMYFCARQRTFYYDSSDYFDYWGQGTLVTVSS VL: DIQMTQSPSSVSASVGDRVTITCRASQGISSWLAWYQQKPGKAPKLLIYAASTLQNGVPSRFSGSGSGTDFTLTISSLQPEDFATYFCQQADSFPRTFGQGTKLEIK	Binding Signal	0.96 fold over 6E7 parental antibody
V33 (antibody, V domains shown, also called 6E7 variant V33; LV-16/HV-203) VH: EVQLVQSGAEVKKPGESLKISCKGSGYSFTSYWIAWVRQMPGKGLEWMGIIYPGDSDTRYSPSFQGQVTISADKSISTAYLQWSSLKASDTAMYFCARQRTFYGDSSDYFDYWGQGTLVTVSS VL: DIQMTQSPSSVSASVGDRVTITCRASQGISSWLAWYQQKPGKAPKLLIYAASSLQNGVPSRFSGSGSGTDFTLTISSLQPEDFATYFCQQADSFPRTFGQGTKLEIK	Binding Signal	0.34 fold over 6E7 parental antibody

Kindly consider the entry below.
Can you look up the measured Binding Signal of V45 (antibody, V domains shown, also called 6E7 variant V45) VH: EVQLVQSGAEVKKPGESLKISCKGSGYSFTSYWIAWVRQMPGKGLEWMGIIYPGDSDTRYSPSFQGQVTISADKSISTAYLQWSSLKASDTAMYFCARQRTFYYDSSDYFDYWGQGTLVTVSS VL: DIQMTQSPSSVSASVGDRVTITCRASQGISSFLAWYQQKPGKAPKLLIYAASSLQNGVPSRFSGSGSGTDFTLTISSLQPEDFATYFCQQADSFPRTFGQGTKLEIK for me?
0.53 fold over 6E7 parental antibody

Reference source: patent US20250326839A1
